Cited source: ChEMBL document CHEMBL1126159

Molecular target: Neprilysin (Rattus norvegicus)
Experiment: The compound was tested in vitro for its inhibitory activity against Enkephalinase enzyme
pIC50: −log10 of the molar value.
PROPERTY MEASURED: pIC50

# COMPOUND, pIC50
rows = [
    ("O=C(Nc1ccc(S(=O)(=O)O)cc1)C(CS)Cc1ccc([N+](=O)[O-])cc1 (centres undefined)", 7.85),
]

P. CC(C)CC(CS)C(=O)NCCS(=O)(=O)O (centres undefined)
Q. O=C(NCCS(=O)(=O)O)C(CS)Cc1ccc([N+](=O)[O-])cc1 (centres undefined)
Ask | Rank P against Q by their pIC50 values and give the higher one. // return label of chosen record
Reply | P
(P: 8.28, Q: 7.77)

====

Molecular target: Neprilysin (Rattus norvegicus, UniProt P07861)
Sequence (P07861 whole entry): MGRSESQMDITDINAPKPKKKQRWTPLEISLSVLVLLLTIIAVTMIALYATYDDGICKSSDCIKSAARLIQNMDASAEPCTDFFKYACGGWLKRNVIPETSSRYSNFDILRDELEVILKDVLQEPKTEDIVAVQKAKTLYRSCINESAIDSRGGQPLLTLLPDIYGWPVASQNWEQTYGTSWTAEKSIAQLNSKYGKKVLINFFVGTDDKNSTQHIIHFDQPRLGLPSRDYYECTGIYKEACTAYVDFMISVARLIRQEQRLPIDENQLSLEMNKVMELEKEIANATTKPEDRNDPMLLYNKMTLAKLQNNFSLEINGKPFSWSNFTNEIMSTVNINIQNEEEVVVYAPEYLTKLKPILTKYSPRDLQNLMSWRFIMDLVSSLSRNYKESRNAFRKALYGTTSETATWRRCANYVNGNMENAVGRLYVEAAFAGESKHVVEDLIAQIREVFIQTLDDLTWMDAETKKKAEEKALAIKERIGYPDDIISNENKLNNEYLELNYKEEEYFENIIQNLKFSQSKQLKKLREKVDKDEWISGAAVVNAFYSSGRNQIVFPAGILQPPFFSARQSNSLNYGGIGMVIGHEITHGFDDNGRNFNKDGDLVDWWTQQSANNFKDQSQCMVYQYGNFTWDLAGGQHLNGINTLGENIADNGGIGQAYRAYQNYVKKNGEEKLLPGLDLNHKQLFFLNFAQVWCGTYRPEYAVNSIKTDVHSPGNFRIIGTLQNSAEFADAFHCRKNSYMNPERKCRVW
Assay: In vitro inhibitory activity against enkephalinase enzyme from rat.
PROPERTY MEASURED: IC50 (nM)

# COMPOUND, PROPERTY MEASURED, MEASUREMENT UNIT, MEASUREMENT
rows = [
    ("O=C(Nc1ccc(S(=O)(=O)O)cc1)C(CS)Cc1ccc(F)cc1 (stereo unspecified)", "IC50", "nM", 5),
]

A. COc1ccc(CC(CS)C(=O)NCCS(=O)(=O)O)cc1 (stereo unspecified)
B. O=C(NCS(=O)(=O)O)C(CS)Cc1ccccc1 (stereo unspecified)
C. O=C(NCCS(=O)(=O)[O-])C(CS)Cc1ccccc1.[Na+] (stereo unspecified)
D. O=C(Nc1cccc(S(=O)(=O)O)c1)C(CS)Cc1ccccc1 (stereo unspecified)
Ask | Please list these compounds in decreasing order of IC50. Please express your ranking as an ordered list of the labels.
Reply | A, B, C, D
(A: 4.4 nM, B: 2.2 nM, C: 1.5 nM, D: 0.27 nM)
